- assayed target: baculovirus-expressed ALK (Homo sapiens)
- Construct: host or cells: baculovirus expression system
- Sequence (Q9UM73 19-1620): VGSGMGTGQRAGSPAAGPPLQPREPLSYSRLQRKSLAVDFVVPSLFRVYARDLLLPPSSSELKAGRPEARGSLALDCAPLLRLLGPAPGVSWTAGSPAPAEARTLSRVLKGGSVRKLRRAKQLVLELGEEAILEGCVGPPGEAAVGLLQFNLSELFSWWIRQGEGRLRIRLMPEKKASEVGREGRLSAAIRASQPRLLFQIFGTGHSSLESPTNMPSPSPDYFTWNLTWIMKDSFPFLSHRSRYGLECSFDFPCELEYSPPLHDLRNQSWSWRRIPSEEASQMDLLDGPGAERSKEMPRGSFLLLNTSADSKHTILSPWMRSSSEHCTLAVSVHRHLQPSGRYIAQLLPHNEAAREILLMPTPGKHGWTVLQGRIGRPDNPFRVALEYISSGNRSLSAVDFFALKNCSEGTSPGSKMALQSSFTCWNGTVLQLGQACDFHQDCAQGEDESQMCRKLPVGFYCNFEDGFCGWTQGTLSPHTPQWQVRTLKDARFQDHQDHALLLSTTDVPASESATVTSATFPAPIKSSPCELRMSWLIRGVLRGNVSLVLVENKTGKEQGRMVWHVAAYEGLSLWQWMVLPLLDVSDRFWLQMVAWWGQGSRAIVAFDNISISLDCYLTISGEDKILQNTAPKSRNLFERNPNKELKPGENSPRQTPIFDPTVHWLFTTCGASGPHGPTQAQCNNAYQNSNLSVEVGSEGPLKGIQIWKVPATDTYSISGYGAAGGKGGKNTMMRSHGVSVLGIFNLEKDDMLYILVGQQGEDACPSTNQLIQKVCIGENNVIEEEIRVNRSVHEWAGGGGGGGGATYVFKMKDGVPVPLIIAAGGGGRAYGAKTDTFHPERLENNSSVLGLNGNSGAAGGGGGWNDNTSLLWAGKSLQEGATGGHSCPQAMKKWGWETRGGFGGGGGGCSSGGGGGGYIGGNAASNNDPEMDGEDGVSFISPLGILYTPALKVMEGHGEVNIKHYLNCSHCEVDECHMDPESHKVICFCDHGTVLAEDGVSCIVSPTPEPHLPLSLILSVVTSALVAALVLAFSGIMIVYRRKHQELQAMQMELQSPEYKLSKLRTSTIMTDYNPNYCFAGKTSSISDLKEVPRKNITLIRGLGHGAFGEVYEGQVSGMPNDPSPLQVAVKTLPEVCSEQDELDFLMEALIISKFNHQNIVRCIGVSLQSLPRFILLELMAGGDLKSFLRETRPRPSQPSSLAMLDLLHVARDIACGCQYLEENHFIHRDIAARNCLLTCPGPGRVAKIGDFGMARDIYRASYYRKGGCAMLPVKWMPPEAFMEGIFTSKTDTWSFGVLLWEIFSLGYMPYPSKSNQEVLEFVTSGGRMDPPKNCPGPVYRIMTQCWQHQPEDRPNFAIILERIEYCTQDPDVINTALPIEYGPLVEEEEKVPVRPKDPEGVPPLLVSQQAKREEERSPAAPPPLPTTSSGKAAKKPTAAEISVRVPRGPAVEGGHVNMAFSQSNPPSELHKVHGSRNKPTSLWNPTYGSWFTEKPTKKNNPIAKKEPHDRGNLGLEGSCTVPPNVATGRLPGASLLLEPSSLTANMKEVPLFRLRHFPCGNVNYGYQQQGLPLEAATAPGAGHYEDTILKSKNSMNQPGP
- method: ALK Kinase Assay (ELISA-type, time-resolved fluorescence)
- Type: biochemical
- settings: ALK kinase inhibition, 1 μM ATP (Km level); read-out: ALK Activity
pIC50: −log10 of the molar value. Structures can show the parent of a compound that is named as a salt.
property: pIC50

Some molecules with recorded pIC50:
> print(dat)
                                   molecule  endpoint.value
1  CNC(=O)c1ccccc1Nc1nc(Nc2ccc3c(c2)NCCNC3=O)ncc1Cl          > 7.00
2  COC(=O)CN1CCN(C)c2cc(Nc3ncc(Cl)c(Nc4ccccc4NS(C)(=O)=O)n3)ccc2C1          > 7.00
3  CS(=O)(=O)N1CCc2ccc(Nc3ncc(Cl)c(NC4C5C=CC(C5)C4C(N)=O)n3)cc2CC1 (stereo not drawn)          > 7.00
4  CC(=O)N1CC2CCC(C1)c1cc(Nc3ncc(Cl)c(N[C@@H]4CCCC[C@H]4NS(C)(=O)=O)n3)ccc12 (stereo partly drawn)          > 7.00
5  CCC1C(=O)N(CC)CCc2cc(Nc3ncc(Cl)c(NC4CCCCC4NS(C)(=O)=O)n3)c(OC)cc21 (stereo not drawn)          > 7.00

Value sought for every listed molecule: pIC50.
1. CCNC(=O)c1ccccc1Nc1nc(Nc2cc3c(cc2OC)CC(=O)N(CC)CC3)ncc1Cl
2. COc1cc(N2CCOCC2)ccc1Nc1nc(Nc2ccc3c(c2)CCN(C[C@H](O)C(F)(F)F)CC3)ncc1Cl
3. CC(C)N1CC2CC(C1)c1cc(Nc3ncc(Cl)c(N[C@@H]4CCCC[C@H]4NS(C)(=O)=O)n3)ccc12 (stereo partly drawn)
4. CNC(=O)c1ccccc1Nc1nc(Nc2c(OC)ccc3c2C(=O)N(C)CCC3)ncc1Cl
5. CNC(=O)c1ccccc1Nc1nc(Nc2ccc3c(c2)CNCCN3C)ncc1Cl

> 7.00
> 7.00
6.00 to 7.00
< 5.00
> 7.00

Value sought for every listed molecule: pIC50.
1. COCCN1CCc2ccc(OC)c(Nc3ncc(Cl)c(N[C@H]4[C@@H](C(N)=O)[C@@H]5C=C[C@H]4C5)n3)c2CC1 (relative stereo)
2. CCN1CCc2cc(Nc3ncc(Cl)c(N[C@@H]4CCCC[C@H]4NS(C)(=O)=O)n3)c(OC)cc2CC1=O

1: 5.00 to 6.00; 2: > 7.00

Value sought for every listed molecule: pIC50.
1. CCN1CCc2ccc(Nc3ncc(F)c(Nc4ccccc4C(=O)NC)n3)cc2CC1
2. COc1cc2c(cc1Nc1ncc(Cl)c(NC3C4C=CC(C4)C3C(N)=O)n1)CCN(CC(=O)N(C)C)CC2 (stereo not drawn)
3. C#CCNc1nc(Nc2ccc3c(c2)CCN(CC)CC3)ncc1Cl
4. CNC(=O)c1ccccc1Nc1nc(Nc2ccc3c(c2)C2CCC3CNC2)ncc1Cl (stereo not drawn)
5. CN1CCNCc2ccc(Nc3ncc(Cl)c(Nc4ccccc4NS(C)(=O)=O)n3)cc21 [Example 471, hydrochloride]
6. CNC(=O)[C@@H]1CCC[C@@H]1Nc1nc(Nc2ccc3c(c2)CCN(CCOC)CC3)ncc1Cl (relative stereo)
7. CCN1C(=O)CCCc2c1ccc(Nc1ncc(Cl)c(N[C@H]3CCC[C@H]3C(=O)NC)n1)c2OC (relative stereo)
8. CNS(=O)(=O)c1ccccc1Nc1nc(Nc2ccc3c(c2)CCCC(=O)N3CC(=O)O)ncc1Cl

> 7.00
> 7.00
5.00 to 6.00
> 7.00
> 7.00
> 7.00
> 7.00
> 7.00

Which pIC50 reading was recorded for the molecule "COCCN1CCc2ccc(Nc3ncc(Cl)c(Nc4ccccc4-n4cccn4)n3)cc2CC1" ?
> 7.00
